- assayedTarget: T1, Soluble IGF-1R (sIGF-1R), R&D Systems Cat. # 391-GR/CF (UniProt P08069 31-935, limits assumed)
- T1 construct: extracellular domain
- experimentDescription: phage ELISA
valueKind: Ratio over Background
One number for each entry.

QGNVLDFYGWIGRLLAKQGSD [20E2B-3-D12-IGFR]: 6.2
ICTGQGFYQVLCGLLRGTSAR [20E2B-2-B3-IGFR]: 5.3
DRDFCRFYERLTALVGGQVDGGWPC [20C-3-F6-IGFR]: 26.1
HLADGQFHEKFYDWFERQISSRCNDC [H2CA-3-E11-IGFR]: 2.2
TSEVQRRSQDNFYDWFVAQVA [A6S-3-E2-IR]: 24.7
GIISQSCPESFYDWFAGQVSDPWWCW [H2CA-4-G9-IGFR]: 9.5

# Ratio over Background of QFYGCLLDLSLGVPSFGWRRRCITA [20C-3-A4-IGFR] = 8.8

These measurements were taken from patent US20070265189A1.
